# METHOD_DESCRIPTION: S. cerevisiae growth modulation with rapamycin, primary screen, strain BY4716, OD600, 96 h (AID 1091); note: test concentration not given here
# CONDITION: higher = more signal, called active from +8 up or from −8 down
PROPERTY: z-score
Just the number, please, no unit after it.

- C=CCC(OC(C)=O)[C@@H]1[C@@H](N(Cc2ccc(-c3ccccc3)cc2)C(=O)Cc2ccc(F)cc2)c2cc(OCCCO)ccc2N1C(=O)Cc1ccc2ccccc2c1 (some centres undefined): 0.0926
- COCC(=C=CC[C@H](O)c1cccc(OCCO)c1)C[C@H](O)COCc1ccccc1: -0.271
- Cc1ccc([C@H]2C(C(=O)O)=C[C@@H](C(C)(C)C)N2S(=O)(=O)c2ccc(C)cc2)cc1: 0.118

C=C(COC)/C(=C/C[C@@H](OC(=O)c1ccncc1)c1ccccc1OCCO)c1cc(C(=O)OC)ccc1OC has a reported z-score of 0.351

----------
# METHOD_DESCRIPTION: binders of probe aFGF2 on microarray, primary screen, stem cell growth factor project, biochemical, small-molecule microarray, fluorescence 635/667 (AID 1067);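 note: measures binding of biotinylated aFGF2 protein to printed compounds on slides; z-score merges feature fluorescence and signal-to-noise across triplicate slides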
# CONDITION: higher = more signal
PROPERTY: composite z-score

Take a look at these entries with their results.
• CN(C)CCCNC(=O)[C@@H]1c2ccccc2C(=O)N(C2CCCCC2)[C@H]1c1ccc(CO)cc1 = 0.0036
• [N-]=[N+]=Nc1ccccc1C[C@]1(C(=O)NCc2ccccc2)COC(c2ccc(OCCCO)cc2)=N1 = 0.113
• CN1C(=O)C2C=CC(C(O)c3ccc(I)cc3)N(Nc3ccccc3)C2C1=O (configuration not stated) = 0.0253
• O=C1c2ccccc2[C@](Cc2ccccc2I)(C(=O)NC2CC2)[C@H](c2ccc(CO)cc2)N1Cc1ccccc1C(F)(F)F = -0.0878
• COc1ccc(C#Cc2ccc3c(c2)[C@]2(C(=O)N3)[C@H](C(=O)Nc3nc4ccccc4s3)[C@H]3C(=O)O[C@H](c4ccccc4)[C@H](c4ccccc4)N3[C@@H]2c2ccccc2OCCO)cc1 = -0.024

Entry COCCOC(=O)N1C(=O)[C@@]2(c3cc(C#Cc4ccc(OC)cc4)ccc31)[C@H](c1ccc(OCCO)cc1)N1[C@H](c3ccccc3)[C@H](c3ccccc3)OC(=O)[C@H]1[C@@H]2C(=O)Nc1nc2ccccc2s1 — recorded composite z-score = -0.0262

What the record says about C=C/C=C/[C@@H]1C(=C)CN([C@@H](Cc2ccccc2)C(=O)OC)[C@H]1[C@@H](O)Cc1ccccc1 : composite z-score is -0.109

----------
# STUDY_SYSTEM: Pro-neuregulin-1, membrane-bound isoform (Homo sapiens) (UniProt Q02297)
# Sequence (Q02297 whole entry, looked up, canonical isoform): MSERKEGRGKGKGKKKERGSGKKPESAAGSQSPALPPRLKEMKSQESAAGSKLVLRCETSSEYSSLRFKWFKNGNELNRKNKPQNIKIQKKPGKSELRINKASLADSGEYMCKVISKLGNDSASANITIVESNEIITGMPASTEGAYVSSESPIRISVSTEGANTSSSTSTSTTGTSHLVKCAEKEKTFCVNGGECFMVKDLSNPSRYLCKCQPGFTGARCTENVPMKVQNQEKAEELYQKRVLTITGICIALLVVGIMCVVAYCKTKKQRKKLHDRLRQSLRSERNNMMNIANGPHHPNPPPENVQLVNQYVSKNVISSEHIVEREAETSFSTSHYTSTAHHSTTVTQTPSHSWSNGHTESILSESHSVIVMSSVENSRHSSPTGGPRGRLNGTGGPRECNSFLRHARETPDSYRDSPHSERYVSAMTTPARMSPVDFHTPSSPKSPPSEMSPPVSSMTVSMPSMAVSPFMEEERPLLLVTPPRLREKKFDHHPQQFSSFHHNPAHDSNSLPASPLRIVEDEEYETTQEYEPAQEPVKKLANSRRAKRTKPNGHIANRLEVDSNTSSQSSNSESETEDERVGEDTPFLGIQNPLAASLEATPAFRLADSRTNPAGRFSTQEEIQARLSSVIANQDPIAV
# METHOD_DESCRIPTION: NRG1 binders on small-molecule microarrays, primary screen, psychiatric disease protein project, biochemical, small-molecule microarray, fluorescence 635/667 (AID 1075);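 note: score combines 667 nm spot fluorescence with signal to noise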
# CONDITION: NRG1 binding, 635 nm fluorescence, higher = more signal
Rule: composite z-score of 1 or more gives class 1; anything lower gives class 0.

The following compounds have reported results that may help.
* C=C[C@H](C)[C@H](OC(=O)Nc1ccc(OC)cc1)c1ccc(OCCO)cc1 | class 0
* COc1cc2c(cc1OC)CN(C(=O)[C@@H]1[C@H]3C(=O)O[C@H](c4ccccc4)[C@H](c4ccccc4)N3[C@H](c3ccc(O)cc3)[C@@]13C(=O)Nc1ccc(C#CCCO)cc13)CC2 | class 1
* [N-]=[N+]=NCc1ccccc1[C@@H]1OC(c2ccc(OCCCO)cc2)=N[C@]1(Cc1ccccc1N=[N+]=[N-])C(=O)NCCN1CCOCC1 | class 1
* O=C(N1CCOCC1)[C@@]1(CCS(=O)(=O)c2ccccc2)N=C(c2ccc(OCCCO)cc2)O[C@H]1c1ccccc1 | class 1
* C=CCNC(=O)[C@H]1[C@@H]2C(=O)O[C@@H](c3ccccc3)[C@@H](c3ccccc3)N2[C@@H](c2ccc(OCCO)cc2)[C@]12C(=O)Nc1ccc(C#CCNC(N)=O)cc12 | class 0
* NC(=O)[C@@H]1[C@H]2C(=O)O[C@H](c3ccccc3)[C@H](c3ccccc3)N2[C@H](c2ccc(OCCO)cc2)[C@@]12C(=O)Nc1ccc(C#CCCO)cc12 | class 1

Now for a further compound.
Exam item: Form field: composite z-score at least 1? Entry: O=C(CS)NCCCCCNC(=O)[C@@H]1C[C@@H]2C(=O)N[C@@H](Cc3ccccc3)C(=O)N2[C@@H]1c1cccc(OCCO)c1
Marked response: class 1
